Please provide measured inhibition (INH) for the entries that follow.
Test system: Hepatitis B virus
Test: Antiviral activity against Hepatitis B virus infected in human HepG2.2.15 cells assessed as inhibition of HBsAg secretion at 20 uM supplemented with fresh medium containing compound every 3 days for 6 days and measured on day 9 by ELISA relative to control
Assay type: functional
One number for each entry, in %.

Here is how some compounds turned out for inhibition (INH).
> print(dat)
                                     smiles  measurement.type  measured.number
1  CNc1ncnc2c1nnn2[C@@H]1O[C@H](CO)[C@@H](O)[C@@]1(C)F  inhibition (INH)             20.1
2  C[C@@]1(F)[C@H](O)[C@@H](CO)O[C@H]1n1nnc2c(Nc3ccc(Cl)cc3F)ncnc21  inhibition (INH)             39.7
3       Nc1ccn([C@@H]2CS[C@H](CO)O2)c(=O)n1  inhibition (INH)             42.4

Lookup: Record C[C@@]1(F)[C@H](O)[C@@H](CO)O[C@H]1n1nnc2c(Nc3ccccc3)ncnc21 : what is its inhibition (INH) with Hepatitis B virus?
Found: 14.8

* * *

Please provide measured inhibition (INH) for the entries that follow.
System: Hepatitis B virus
Test: Antiviral activity against Hepatitis B virus infected in human HepG2.2.15 cells assessed as inhibition of HBeAg secretion at 20 uM supplemented with fresh medium containing compound every 3 days for 6 days and measured on day 9 by ELISA relative to control
Assay type: functional
Numbers only, in %.

Here is how some compounds turned out for inhibition (INH).
> print(dat)
                                     smiles      system.tested  measurement.type  unit.label  measured.number
1  C[C@@]1(F)[C@H](O)[C@@H](CO)O[C@H]1n1nnc2c(N)ncnc21  Hepatitis B virus  inhibition (INH)           %               10
2  C[C@@]1(F)[C@H](O)[C@@H](CO)O[C@H]1n1nnc2c(NC3CC3)ncnc21  Hepatitis B virus  inhibition (INH)           %             16.7
3  C[C@@]1(F)[C@H](O)[C@@H](CO)O[C@H]1n1nnc2c(NCc3ccccc3)ncnc21  Hepatitis B virus  inhibition (INH)           %             11.9

Note: attention shifts to another entry.
Lookup: Requested field: inhibition (INH). Item: CCCCNc1ncnc2c1nnn2[C@@H]1O[C@H](CO)[C@@H](O)[C@@]1(C)F
Found: 11.6

* * *

Please provide measured inhibition (INH) for the entries that follow.
System: Hepatitis B virus
Test: Antiviral activity against Hepatitis B virus infected in human HepG2.2.15 cells assessed as inhibition of HBsAg secretion at 20 uM supplemented with fresh medium containing compound every 3 days for 6 days and measured on day 9 by ELISA relative to control
Type: functional
Give bare numbers, in %.

> print(dat)
                                     smiles  measured.number
1  C[C@@]1(F)[C@H](O)[C@@H](CO)O[C@H]1n1nnc2c(N)ncnc21              9.9
2  C[C@@]1(F)[C@H](O)[C@@H](CO)O[C@H]1n1nnc2c(NC3CC3)ncnc21             11.4
3  CCCCNc1ncnc2c1nnn2[C@@H]1O[C@H](CO)[C@@H](O)[C@@]1(C)F               17
4  C[C@@]1(F)[C@H](O)[C@@H](CO)O[C@H]1n1nnc2c(NCc3ccccc3)ncnc21              8.5

Lookup: Requested field: inhibition (INH). Item: C[C@@]1(F)[C@H](O)[C@@H](CO)O[C@H]1n1nnc2c(=O)[nH]cnc21
Found: 8.5

* * *

Please provide measured CC50 at 216 h for the entries that follow.
Test: Cytotoxicity against human HepG2 cells supplemented with fresh medium containing compound every 3 days for 9 days measured post-last dose by MTT assay
Format: cell-based

> print(dat)
                                     smiles  measurement.type    result
1  C[C@@]1(F)[C@H](O)[C@@H](CO)O[C@H]1n1nnc2c(NC3CC3)ncnc21     CC50 at 216 h  > 600 µM
2  C[C@@]1(F)[C@H](O)[C@@H](CO)O[C@H]1n1nnc2c(Nc3ccccc3)ncnc21     CC50 at 216 h    501 µM
3  C[C@@]1(F)[C@H](O)[C@@H](CO)O[C@H]1n1nnc2c(Nc3ccc(Cl)cc3F)ncnc21     CC50 at 216 h    245 µM
4  C[C@@]1(F)[C@H](O)[C@@H](CO)O[C@H]1n1nnc2c(N)ncnc21     CC50 at 216 h  > 600 µM
5  C[C@@]1(F)[C@H](O)[C@@H](CO)O[C@H]1n1nnc2c(NCc3ccccc3)ncnc21     CC50 at 216 h  > 600 µM
6  C[C@@]1(F)[C@H](O)[C@@H](CO)O[C@H]1n1nnc2c(=O)[nH]cnc21     CC50 at 216 h  > 600 µM
7  CCCCNc1ncnc2c1nnn2[C@@H]1O[C@H](CO)[C@@H](O)[C@@]1(C)F     CC50 at 216 h  > 600 µM

Note: attention shifts to another entry.
Lookup: Requested field: CC50 at 216 h. Item: CNc1ncnc2c1nnn2[C@@H]1O[C@H](CO)[C@@H](O)[C@@]1(C)F
Found: > 600 µM

* * *

Test: Cytotoxicity against human HepG2 cells after 3 days by MTT assay
Type: cell-based
Measurement type: CC50 at 72 h (µM)
Numbers only, in µM.

Lookup: Requested field: CC50 at 72 h. Item: C[C@@]1(F)[C@H](O)[C@@H](CO)O[C@H]1n1nnc2c(Nc3ccc(Cl)cc3F)ncnc21
Found: 409

Taken from ChEMBL document CHEMBL4340532.
